Subject Of Test: S-nitrosoglutathione reductase (GSNOR) (Homo sapiens)
Construct: made in house; host or cells: E. coli
Sequence (P11766 whole entry): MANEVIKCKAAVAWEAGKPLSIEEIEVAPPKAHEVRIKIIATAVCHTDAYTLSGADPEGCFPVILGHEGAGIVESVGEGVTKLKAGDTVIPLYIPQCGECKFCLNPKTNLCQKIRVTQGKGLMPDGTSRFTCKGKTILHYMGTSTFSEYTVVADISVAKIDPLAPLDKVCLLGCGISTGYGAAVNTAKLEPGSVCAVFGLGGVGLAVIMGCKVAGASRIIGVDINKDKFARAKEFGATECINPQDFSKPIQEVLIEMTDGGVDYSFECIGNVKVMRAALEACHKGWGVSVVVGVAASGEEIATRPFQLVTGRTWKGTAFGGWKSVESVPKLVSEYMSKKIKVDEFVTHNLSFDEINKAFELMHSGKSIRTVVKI
Method Description: GSNOR assay (inhibition of GSNOR activity, NADH absorbance at 340 nm)
Format: biochemical
Test Settings: GSNOR inhibitor activity, Tables 1-6; read-out: IC50 range
Readout Kind: IC50

- Compound: "O=C(O)c1ccc(CC(=O)c2ccc(O)c(F)c2)c(F)c1"
  Measurement: "< 100 nM"
- Compound: "O=[N+]([O-])c1cc(-c2ccc3cc(O)ccc3n2)ccc1O [Compound I-61, 2-(4-hydroxy-3-nitrophenyl)quinolin-6-ol]"
  Measurement: "1000 to 10000 nM"
- Compound: "O=C(O)c1ccc(-c2ccc3cc(O)ccc3c2)c(N2CCOCC2)c1"
  Measurement: "100 to 1000 nM"
- Compound: "O=C(O)c1ccc(Oc2c(-c3ccccc3)oc3cc(O)ccc3c2=O)cc1"
  Measurement: "1000 to 10000 nM"
- Compound: "O=C(O)[C@H]1CC[C@H](c2nc3ccc(O)cc3nc2C(F)(F)F)CC1"
  Measurement: "< 100 nM"
- Compound: "O=C(O)c1ccc(CC(=O)c2ccc(O)cc2Cl)c(F)c1"
  Measurement: "< 100 nM"
- Compound: "O=C(O)c1ccc(Sc2c(C(F)(F)F)oc3cc(O)ccc3c2=O)cc1"
  Measurement: "1000 to 10000 nM"
- Compound: "O=C(O)c1ccc(COc2ccc(O)c(F)c2F)c(F)c1"
  Measurement: "< 100 nM"
- Compound: "O=C(O)c1ccc(-c2c(C(F)(F)F)oc3cc(O)ccc3c2=O)c(F)c1"
  Measurement: "< 100 nM"
- Compound: "Oc1ccc2nc(C(F)(F)F)c(-c3ccc(-c4nnn[nH]4)cc3)nc2c1"
  Measurement: "100 to 1000 nM"
- Compound: "O=C(O)c1ccc(CC(=O)c2c(F)cc(O)cc2F)c(F)c1"
  Measurement: "100 to 1000 nM"
- Compound: "COc1cc(C(=O)O)ccc1-c1ccc2cc(O)ccc2c1"
  Measurement: "< 100 nM"
- Compound: "O=c1[nH]nc(-c2ccc(-c3ccc4cc(O)ccc4n3)cc2)s1"
  Measurement: "100 to 1000 nM"
- Compound: "O=C(O)C1CCN(c2nc3ccc(O)cc3nc2C(F)(F)F)CC1"
  Measurement: "< 100 nM"
- Compound: "O=C(O)c1ccc(-c2ccc3cc(O)ccc3c2F)cc1"
  Measurement: "< 100 nM"
